- system tested: T1, Foxp3-7 peptide/HLA-A*02:01 complex on the cell surface (human)
- T1 construct: also called Foxp3-7/HLA-A2 complex
- test description: flow cytometry, phage on T2 + Foxp3-7 peptide; secondary only 104, unstained 81.7
recorded endpoint: Median:FITC-A
// return a plain number; no unit text

If you can, please state the reported Median:FITC-A value of EXT017-21 scFv phage clone (scFv, also called phage clone #21) scFv: SYELTQPPSVSVAPGQTASMTCGGNNIGSKSVHWYQQKPSQAPVMVVHDDSERPSGIPERISGSKSGNTATLTISRVEAGDEADYYCQVWDSSSDHVIFGGGTKLTVLGSRGGGGSGGGGSGGGGSLEMAQVQLVQSGAEVKKPGASVKVSCKASGYTFTNYYIHWVRQAPGQGLEWMGIIRPSGGITNYAQKFQGRVSMTRDTSTSTVYMELSSLRSEDTAVYYCARSWMSDSYYDGWGQGTLVTVSSTSGQAGQHHHHHHGAYPYDVPDYAS . 2220

Now try EXT017-32 scFv phage clone (scFv, also called EXT017-32 phage; phage clone #32) scFv: QSVLTQPPSVSVAPGKTARITCGGNNIGSKSVHWYQQKPGQAPVLVIYYDSDRPSGIPERFSGSNSGNTATLTISRVEAGDEADYYCQVWDSSSDHYVFGTGTKVTVLGSRGGGGSGGGGSGGGGSLEMAEVQLVESGGGVVQPGRSLRLSCAASGFTFNNHAMHWVRQAPGKGLEWVAVISFDGDDKFYADSVKGRFTISRDNSRNTLFLQMNNLRPEDTAVYYCSRDPYHFASGSYSYFDYWGQGTLVTVSSTSGQAGQHHHHHHGAYPYDVPDYAS . 3840
